These measurements were taken from PubChem BioAssay (NCI).

Test system: HL-60(TB) leukemia
assay explanation: NCI tumour cell line growth inhibition, 48 h
experimental endpoint: GI50

>>> reading("CC(=O)/C=C/C1=C(c2cc3ccccc3s2)c2ccccc2CC1")
"16.4 µM"
>>> reading("C=CC1CC12C(=O)C1OC2(C)C2C(=O)c3c(ccc4c3ccc3ccccc34)C(=O)C12 (configuration not stated)")
"31 µM"
>>> reading("CCN(CC)c1ccc2c(c1)Oc1nc(N)c(C#N)c(N)c1C2Sc1ccc(SC)cc1 (configuration not stated)")
"1.97 µM"
>>> reading("COc1cc(CSc2nc3ccc(C)cc3c(=O)n2Cc2ccccc2)cc(OC)c1OC")
"3.3 µM"
>>> reading("ClCCN(CCCl)c1ccc(-n2cnc3c(Cl)ncnc32)cc1")
"2.5 µM"

Task: Give the measured GI50 of CC(ONC(=O)c1cc(C(F)(F)F)cc(C(F)(F)F)c1)C(=O)Nc1ccc(Cl)cc1 (configuration not stated) .
Result: 3.86 µM

Task: Which GI50 reading was recorded for the compound `O=C1c2ccccc2C(=O)N1c1ccc(S(=O)(=O)Nc2ncccn2)cc1` ?
Result: > 100 µM

----------
System: MOLT-4 leukemia
assay explanation: NCI tumour cell line growth inhibition, 48 h
experimental endpoint: TGI

Below are worked cases with known answers.
>>> reading("COc1ccc2c(c1)c(C1(c3cn(C)c4ccc(OC)cc34)C(=O)Nc3ccc(F)cc31)cn2C")
"50.1 µM"
>>> reading("O=C(O)C1C2CC3C(OC(=O)C31)C2Br (stereo unspecified)")
"> 58.1 µM"
>>> reading("Cc1cccc(Nc2cn(COCc3ccccc3)c(=O)[nH]c2=O)c1")
"> 100 µM"
>>> reading("NNC(=O)CNC(=O)CSc1nnc(COc2ccc(Cl)cc2)n1-c1ccccc1")
"> 100 µM"
>>> reading("CCOP(=O)(/C=C\\n1cnc2c(=O)n(C(C)=O)c(N)nc21)OCC")
"> 100 µM"
>>> reading("O=C(OCCOCBr)c1ccccc1")
"> 100 µM"

Task: Sample `O=C(CSc1nc(=O)[nH]c2nc[nH]c12)Nc1ccccc1` — what was its TGI?
Result: > 100 µM

Task: Param item = COc1ccc(C2SCC(=O)N2c2ccc(-c3ccc(-n4c(-c5ccccc5)nc5ccccc5c4=O)cc3)cc2)cc1 (stereo unspecified) ; retrieve measured TGI.
Result: > 100 µM

Task: What value of TGI has been recorded for this entry: CCCCCCCCCCCCCCCC(=O)OCC(O)C1OC(=O)C(O)=C1O (stereo unspecified)
Result: > 100 µM

Task: I have this compound here, c1ccc(C2SCC3=Nc4ccccc4CN32)cc1 (stereo unspecified) , and I need its recorded TGI.
Result: > 100 µM

Task: Entry under review: COC(OC)c1cccc2c1C1(O)CCC3(CC21)OCCCCO3 (stereo unspecified) . Reported TGI?
Result: > 100 µM

----------
System: M14 melanoma
assay explanation: NCI tumour cell line growth inhibition, 48 h
experimental endpoint: TGI

Some molecules with known TGI results, for comparison:
>>> reading("CCc1n[nH]c(=O)n1N1C(=O)C2CC=CCC2C1=O (stereo unspecified)")
"> 100 µM"
>>> reading("CN(C)CCNc1ccc([N+](=O)[O-])c2nc3ccccc3c(N)c12")
"1.94 µM"

Task: Can you share its TGI? I mean this molecule: `CCOC(=O)CC1(O)C=CC(=O)C=C1`
Result: 4.35 µg/mL

Task: # get_value(readout='TGI', item= `CC(=O)[O-].CC(=O)[O-].O=C(N/N=C/c1cc(Cl)cc(Cl)c1[OH2+])c1ccncc1.[Co+2]` )
Result: > 100 µM

Task: Reported TGI, molecule `CCCCC(=O)N/N=C/c1cc(I)cc(I)c1O` : ____
Result: 14.8 µM

Task: // returns reported TGI for input `CCCN1C(=O)CCC2=C1CCc1c2ccc(Cl)c1Cl`
Result: > 100 µM

----------
Tested on: HS 578T breast
assay explanation: NCI tumour cell line growth inhibition, 48 h; in the data active = GI50 below about 0.43 µM; inactive = the rest
Your response should consist of one outcome taken from 1 (yes) for active, 0 (no) for inactive

Use the examples below as a reference point.
>>> assigned_category("CN1C(=O)CNC(=O)[C@H](NC(=O)c2nc3ccccc3cc2O)CSSC[C@H]1C(=O)NCCc1nc2ccccc2cc1O")
"0 (no)"
>>> assigned_category("CC(=O)/C=C/C1=C(c2cc3ccccc3s2)c2ccccc2CC1")
"0 (no)"

Task: Record request — test call for `CN1CCN(c2ccc3c4c(cccc24)C(=O)N(CCN2CCN(CCCN4CCN(CCN5C(=O)c6cccc7c(N8CCN(C)CC8)ccc(c67)C5=O)CC4)CC2)C3=O)CC1`
Result: 0 (no)

Task: Hi team, can someone confirm the assay call for `COc1ccc(O)c(C(=O)c2ccc(C(=O)O[C@@H]3CCCNC[C@H]3NC(=O)c3ccncc3)cc2)c1F` ?
Result: 1 (yes)

----------
Test system: OVCAR-4 ovarian
assay explanation: NCI tumour cell line growth inhibition, 48 h
experimental endpoint: TGI

>>> reading("O=P(O)(O)C(O)/C=C/c1ccccc1 (stereo not drawn)")
"> 100 µM"
>>> reading("Cc1nn(C(=O)c2ccc(Cl)cc2)c2c1C(c1ccc([N+](=O)[O-])cc1)SC(N)=N2 (stereo not drawn)")
"> 10 µM"
>>> reading("C1COC(NC(C2CC2)C2CC2)=N1")
"> 100 µM"
>>> reading("CCCNCc1nc2ccc(Br)cc2c(=O)n1CCC")
"27.7 µM"
>>> reading("CCCCCCCCCCCCCCCC(=O)OCC(O)C1OC(=O)C(O)=C1O (stereo not drawn)")
"> 100 µM"
>>> reading("COC(=O)c1ccccc1NC(=O)/C(=N\\NC(C)(C)C)C(C#N)c1nc(-c2ccc([N+](=O)[O-])cc2)cs1 (stereo not drawn)")
"> 100 µM"
>>> reading("O=C(CSc1nc(=O)[nH]c2nc[nH]c12)Nc1ccccc1")
"> 100 µM"
>>> reading("COc1ccc(-c2n[nH]nc2-c2csc3ccccc23)cc1OC")
"> 100 µM"

Task: # lookup: TGI of `CC(C)=CCc1c(O)cc(/C=C/c2cc(O)c3c(c2)C[C@@H]2C(C)(C)[C@H](O)[C@H](O)C[C@@]2(C)O3)cc1O`
Result: 4.08 µM

Task: Query: TGI; subject: `CC(=O)c1ccc(Oc2ccc(/C(C)=N\N=C(N)N)cc2)cc1`
Result: 23 µM

Task: Tell me the measured TGI of `Nc1cc(-c2ccccc2)ccc1O` , please.
Result: > 100 µM

Task: Could you tell me which TGI is on file for `CCCCCCCCCCCCCCCc1cc(O)ccc1N` ?
Result: 3.77 µM

Task: Give the measured TGI of `Cc1cc(N(CCC#N)CCC#N)ccc1/C(N=Nc1cccc([N+](=O)[O-])c1)=N/NC(=O)c1cc(Cl)ccc1O` .
Result: 92.2 µM

Task: // query TGI value for entry `COc1ccc(Cc2nc3cc(C(F)(F)F)ccc3n2CCCN(C)C)cc1`
Result: 80.4 µM

----------
System: EKVX NSCLC
assay explanation: NCI tumour cell line growth inhibition, 48 h
Form field: GI50 (one value per entry).

Below: 4 molecules and their reported GI50.
>>> reading("CCC(Sc1nnc2c3ccccc3n(CC)c2n1)C(=O)Nc1ccccc1OC (stereo not given)")
"1.08 µM"
>>> reading("Nc1cc(-c2ccccc2)ccc1O")
"82.2 µM"
>>> reading("O=C(Nc1cc(C(F)(F)F)ccc1F)Nc1n[nH]c2ccccc12")
"> 100 µM"
>>> reading("COc1ccc(-c2n[nH]nc2-c2csc3ccccc23)cc1OC")
"3.42 µM"

Now take the following molecule into account.
Task: Fill in the blank: the reported GI50 of C=CC1CC12C(=O)C1OC2(C)C2C(=O)c3c(ccc4c3ccc3ccccc34)C(=O)C12 (stereo not given) is ____.
Result: 78.6 µM

----------
In this section, each of the compounds is paired with its reported TGI.
Tested on: HS 578T breast
assay explanation: NCI tumour cell line growth inhibition, 48 h
Provide the reading as a plain figure in µM.

Some compounds with recorded TGI:
>>> reading("CCC[C@H](N[C@@H]1CCc2cc(F)cc(F)c2C1)C(=O)Nc1cn(C(C)(C)CNCC(C)(C)C)cn1")
64.4
>>> reading("CN1CCN(c2ccc3c4c(cccc24)C(=O)N(CCN2CCN(CCCN4CCN(CCN5C(=O)c6cccc7c(N8CCN(C)CC8)ccc(c67)C5=O)CC4)CC2)C3=O)CC1")
38.7
>>> reading("CCN(CC)CCOc1ccc(/C=C2\\CC3C4CCC5=CC(=O)CC[C@]5(C)C4CC[C@]3(C)C2=O)cc1OC (some centres not stated)")
17.3
>>> reading("CN(C)CCNc1ccc([N+](=O)[O-])c2nc3ccccc3c(N)c12")
8.2
>>> reading("COc1ccc2c3c1OC1C(=O)C=CC4(O)C(C2)NCC[C@@]314 (some centres not stated)")
6.39

Task: Which TGI is listed for COC(CCP(=O)(c1ccccc1)c1ccccc1)(C(=O)c1ccccc1)c1ccccc1 (configuration not stated) ?
Result: 23.1

Task: Can you look up the measured TGI of `Cc1csc2nc(-c3ccc([N+](=O)[O-])cc3)c(/C=N/N=C(N)N)n12` for me?
Result: 3.15

Task: Given the compound NC1C/C(=N\O)c2c(I)sc(I)c21 (configuration not stated) , what is its reported TGI?
Result: 48.9

Task: Looking for the measured TGI of CC1(c2ccc(Cl)cc2)CC(c2ccc(Cl)cc2)=C(C#N)C(=C(C#N)C#N)N1 (configuration not stated) , can you help?
Result: 50.3
